target: RXRβ (Mus musculus, UniProt P28704); construct: expressed in transfected cells; host or cells: CV-1 (monkey kidney); assay: Co-transfection (cis-trans) assay in CV-1 cells, RXRβ; format: cell-based
Sequence (P28704 whole entry): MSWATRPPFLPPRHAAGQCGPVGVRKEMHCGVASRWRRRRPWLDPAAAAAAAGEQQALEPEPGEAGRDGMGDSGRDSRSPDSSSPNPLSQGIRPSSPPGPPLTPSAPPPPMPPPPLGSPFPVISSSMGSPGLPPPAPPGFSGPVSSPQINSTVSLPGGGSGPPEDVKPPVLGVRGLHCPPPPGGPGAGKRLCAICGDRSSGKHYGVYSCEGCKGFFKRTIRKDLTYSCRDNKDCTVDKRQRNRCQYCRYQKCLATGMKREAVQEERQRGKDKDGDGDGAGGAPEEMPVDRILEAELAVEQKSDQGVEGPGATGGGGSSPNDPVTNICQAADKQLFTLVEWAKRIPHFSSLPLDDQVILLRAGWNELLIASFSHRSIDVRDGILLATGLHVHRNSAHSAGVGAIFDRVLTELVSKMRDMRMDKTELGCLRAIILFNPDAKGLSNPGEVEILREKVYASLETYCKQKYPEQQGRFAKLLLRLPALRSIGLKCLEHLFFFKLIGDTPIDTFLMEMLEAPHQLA
value-type: pEC50
pEC50 (log units): -log10 of the concentration in mol/L.

Short answer for C=C(c1ccc(C(=O)O)cc1)c1cc2c(cc1Br)C(C)(C)CCC2(C)C : pEC50 was 7.27

###

Recorded Emax at 10 µM for the following molecules
molecular target: RARβ (Homo sapiens); assay: Co-transfection (cis-trans) assay in CV-1 cells, RARβ; type: cell-based; parameters: expressed in transfected cells; host or cells: CV-1 (monkey kidney); settings: CV-1, maximal response relative to all-trans-retinoic acid at 10^−5 M, read-out: Efficacy
Sequence (P10826 whole entry): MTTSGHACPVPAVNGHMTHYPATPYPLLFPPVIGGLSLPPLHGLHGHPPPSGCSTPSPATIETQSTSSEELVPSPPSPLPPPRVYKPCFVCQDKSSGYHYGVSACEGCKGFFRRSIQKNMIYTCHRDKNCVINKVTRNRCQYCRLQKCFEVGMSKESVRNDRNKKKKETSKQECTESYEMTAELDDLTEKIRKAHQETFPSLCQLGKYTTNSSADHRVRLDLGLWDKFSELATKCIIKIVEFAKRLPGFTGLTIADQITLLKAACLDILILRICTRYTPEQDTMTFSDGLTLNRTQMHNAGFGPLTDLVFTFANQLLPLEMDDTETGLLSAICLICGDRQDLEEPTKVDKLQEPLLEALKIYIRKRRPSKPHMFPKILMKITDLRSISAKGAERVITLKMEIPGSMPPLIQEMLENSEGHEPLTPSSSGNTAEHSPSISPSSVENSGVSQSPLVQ
Numbers only here, please. The scale is %.

Form: molecule = C/C(=C/C=C/C(C)=C/C(=O)O)c1cc2c(cc1C)C(C)(C)CCC2(C)C ; Emax at 10 µM = 40

Value of measured Emax at 10 µM for the entry CC1=C(C=CC2CCCCC2/C=C/C(C)=C/C(=O)O)C(C)(C)CCC1 (centres unmarked) : 5

Recorded result, C=C(c1ccc(C(=O)Nc2ccc(O)cc2)cc1)c1cc2c(cc1C)C(C)(C)CCC2(C)C , Emax at 10 µM: 25

The molecule listed as CC1=C(/C=C/C(=C\C=C\C(C)=C\C(=O)O)C(C)(C)C)C(C)(C)CCC1 shows Emax at 10 µM equal to 63
